# assayed_target: human FAK (Homo sapiens)
# Sequence (Q05397 whole entry): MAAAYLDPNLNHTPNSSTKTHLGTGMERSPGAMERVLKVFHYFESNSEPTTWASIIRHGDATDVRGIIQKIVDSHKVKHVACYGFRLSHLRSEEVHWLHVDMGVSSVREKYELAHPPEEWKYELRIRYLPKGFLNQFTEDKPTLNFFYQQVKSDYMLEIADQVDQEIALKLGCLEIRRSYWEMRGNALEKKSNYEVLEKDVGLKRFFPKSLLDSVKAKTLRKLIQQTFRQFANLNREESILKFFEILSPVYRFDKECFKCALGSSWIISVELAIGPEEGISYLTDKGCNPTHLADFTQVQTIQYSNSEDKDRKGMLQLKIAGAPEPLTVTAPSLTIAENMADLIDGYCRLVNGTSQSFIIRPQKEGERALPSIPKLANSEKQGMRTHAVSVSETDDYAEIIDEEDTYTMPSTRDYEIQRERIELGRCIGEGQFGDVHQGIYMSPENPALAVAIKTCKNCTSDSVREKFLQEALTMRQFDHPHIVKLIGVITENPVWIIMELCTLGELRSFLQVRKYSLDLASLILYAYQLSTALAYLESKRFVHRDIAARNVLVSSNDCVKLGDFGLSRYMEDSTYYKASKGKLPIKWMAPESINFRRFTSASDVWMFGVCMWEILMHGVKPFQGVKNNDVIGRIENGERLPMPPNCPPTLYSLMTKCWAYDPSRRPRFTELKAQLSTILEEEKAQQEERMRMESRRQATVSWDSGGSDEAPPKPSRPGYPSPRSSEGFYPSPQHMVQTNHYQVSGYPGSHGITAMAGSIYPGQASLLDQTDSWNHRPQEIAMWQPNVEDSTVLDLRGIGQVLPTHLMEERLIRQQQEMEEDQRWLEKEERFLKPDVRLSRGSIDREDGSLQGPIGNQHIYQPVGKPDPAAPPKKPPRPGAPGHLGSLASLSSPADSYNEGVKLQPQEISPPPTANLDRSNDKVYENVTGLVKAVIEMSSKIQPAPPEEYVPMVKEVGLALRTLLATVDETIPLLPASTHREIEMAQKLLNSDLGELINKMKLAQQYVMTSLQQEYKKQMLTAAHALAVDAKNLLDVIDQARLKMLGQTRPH
pIC50: −log10 of the molar value.
experimental_readout: pIC50

I = CC(=O)Nc1[nH]cc(-c2ccc(NC(=O)Nc3ccc(C)c(C)c3)cc2)c1C(N)=O [Example 19]
II = NC(=O)c1c[nH]cc1-c1ccc(NC(=O)Nc2cc(C(F)(F)F)ccc2F)cc1 [Example 1]
Endpoint returns the identifier whose pIC50 is numerically larger, either I or II . Give the chosen item's label as your response. I
(I: 6.14, II: 5.69)

* * *

# assayed_target: human Tie2 (intracellular domain 776-1124, GST fusion) (Homo sapiens)
# Construct: the amino acids of the intracellular domain 776-1124
# Sequence (Q02763 776-1124): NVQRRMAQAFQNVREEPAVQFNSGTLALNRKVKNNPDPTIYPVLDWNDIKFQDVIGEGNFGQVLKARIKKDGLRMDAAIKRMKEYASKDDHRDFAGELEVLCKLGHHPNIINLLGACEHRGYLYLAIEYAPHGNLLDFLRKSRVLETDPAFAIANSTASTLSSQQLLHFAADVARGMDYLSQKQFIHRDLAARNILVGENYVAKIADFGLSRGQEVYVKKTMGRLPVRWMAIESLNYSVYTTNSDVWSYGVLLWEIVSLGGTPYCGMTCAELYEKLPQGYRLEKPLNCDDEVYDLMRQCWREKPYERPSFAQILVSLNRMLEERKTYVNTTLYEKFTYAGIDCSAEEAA
# assay_name: Phosphorylation of PLC by Tie2 (GST-Tie2), FlashPlate radioactivity test
# cond: 2 μM cold ATP, GST-PLC substrate, 1 hour at 37° C.; read-out: TEI2 IC 50
pIC50: −log10 of the molar value.
experimental_readout: pIC50

molecular_string | assayed_target | pIC50
CC(=O)Nc1[nH]cc(-c2ccc(NC(=O)Nc3ccc(C)c(C)c3)cc2)c1C(N)=O | human Tie2 (intracellular domain 776-1124, GST fusion) (Homo sapiens) | 6.90

P = CC(=O)Nc1[nH]cc(-c2ccc(NC(=O)Nc3ccc(OC(F)(F)F)cc3)cc2)c1C(N)=O
Q = CCCC(=O)Nc1[nH]cc(-c2ccc(NC(=O)Nc3cc(C(F)(F)F)ccc3F)cc2)c1C(N)=O
R = NC(=O)c1c[nH]cc1-c1ccc(NC(=O)Nc2cc(C(F)(F)F)ccc2F)cc1
Would you mind ranking these compounds by ascending pIC50? Sort the labels as requested; that list is your answer. P, R, Q
